Source listed as patent US20250152585A1.

target: full length N-terminally FLAG-tagged PARP1 (Homo sapiens); test: PARP1 biochemical DELFIA assay (auto-PARylation); set-up: recombinant full length human N-terminally FLAG-tagged PARP1; settings: binned IC50, PARP1 biochemical DELFIA assay
pIC50: −log10 of the molar value.
What pIC50 was measured for each of the following?

• CNC(=O)c1ccc(N2CCC(N3CCCC(c4ccc(OC)c(=O)[nH]4)C3)CC2)cn1 (single isomer, unassigned) [Compound 147b] = 5.00 to 6.00
• CNC(=O)c1ccc(N2CCC(N3CCC(c4nc5ccc(Cl)cc5c(=O)[nH]4)C3)CC2)cn1 (single isomer, unassigned) [Compound 68a] = > 8.00

Hey, can you go through the list below and give me pIC50 for every item?
1. CNC(=O)c1cnc(N2CCC(N3CCC(c4nc5ccccc5c(=O)[nH]4)C3)CC2)cn1 (single isomer, unassigned) [Compound 96b]
2. CNC(=O)c1ccc(N2CCC(N3CCC(c4cnc(C)c(=O)[nH]4)C3)CC2)cn1 (racemic)
3. CNC(=O)c1ccc(N2CCC(N3CCC(c4cc5cccc(F)c5c(=O)[nH]4)C3)CC2)cn1 (racemic) [Compound 136rac]
4. CNC(=O)c1ccc(N2CCC(N3CCCC(c4ncc(CC(F)(F)F)c(=O)[nH]4)C3)CC2)cn1 (single isomer, unassigned) [Compound 212a]

Return:
1. 6.00 to 7.00
2. 7.00 to 8.00
3. > 8.00
4. 6.00 to 7.00

Hey, can you go through the list below and give me pIC50 for every item?
1. CNC(=O)c1ccc(N2CCC(N3CCCC(c4ccc(C5CC5)c(=O)[nH]4)C3)CC2)cn1 (single isomer, unassigned) [Compound 126a]
2. NC(=O)c1ccc(N2CCC(N3CCC(c4nc5ccccc5c(=O)[nH]4)C3)CC2)cn1 (single isomer, unassigned) [Compound 123b]

Return:
1: > 8.00; 2: > 8.00

###

target: UniProtKB P09874; assay: PARP1 biochemical DELFIA assay (auto-PARylation); set-up: recombinant full length human N-terminally FLAG-tagged PARP1; conditions: binned IC50, PARP1 biochemical DELFIA assay
What IC50 was measured for each of the following?

Take a look at these entries with their results.
* CNC(=O)c1ccc(N2CCC(N3CCCC(c4nc5ccccc5c(=O)[nH]4)C3)CC2)c(C(F)F)n1 (racemic) [Compound 156rac] | 10 to 100 nM
* CNC(=O)c1ccc(N2CCC(N3CCC(c4nc5c(c(=O)[nH]4)CCCN5C)C3)CC2)cn1 (single isomer, unassigned) [Compound 208a] | < 10 nM
* CNC(=O)c1ccc(N2CCC(N3CCC(c4nc5c(c(=O)[nH]4)CCCN5C)C3)CC2)cn1 (single isomer, unassigned) [Compound 208b] | < 10 nM
* O=c1[nH]c(C2CCN(C3CCC(F)(F)CC3)C2)nc2ccccc12 (single isomer, unassigned) [Compound 4a] | 100 to 1000 nM

Lab note: next compound to report on.
Enquiry: Look up IC50 for this compound: CNC(=O)c1ccc(N2CCC(N3CCC(c4nc5ccccc5c(=O)[nH]4)C3)CC2)c(C)n1 (single isomer, unassigned) [Compound 125a]
Return: < 10 nM

###

biological target: N-terminally FLAG-tagged PARP2 (amino acids 1-583) (Homo sapiens); construct: N-terminally FLAG-tagged PARP2 (amino acids 1-583); experiment: PARP2 probe displacement HTRF assay; assay type: binding; details: binned Kd, PARP2 probe displacement HTRF
Sequence (Q9UGN5 whole entry, the tested form may be a part): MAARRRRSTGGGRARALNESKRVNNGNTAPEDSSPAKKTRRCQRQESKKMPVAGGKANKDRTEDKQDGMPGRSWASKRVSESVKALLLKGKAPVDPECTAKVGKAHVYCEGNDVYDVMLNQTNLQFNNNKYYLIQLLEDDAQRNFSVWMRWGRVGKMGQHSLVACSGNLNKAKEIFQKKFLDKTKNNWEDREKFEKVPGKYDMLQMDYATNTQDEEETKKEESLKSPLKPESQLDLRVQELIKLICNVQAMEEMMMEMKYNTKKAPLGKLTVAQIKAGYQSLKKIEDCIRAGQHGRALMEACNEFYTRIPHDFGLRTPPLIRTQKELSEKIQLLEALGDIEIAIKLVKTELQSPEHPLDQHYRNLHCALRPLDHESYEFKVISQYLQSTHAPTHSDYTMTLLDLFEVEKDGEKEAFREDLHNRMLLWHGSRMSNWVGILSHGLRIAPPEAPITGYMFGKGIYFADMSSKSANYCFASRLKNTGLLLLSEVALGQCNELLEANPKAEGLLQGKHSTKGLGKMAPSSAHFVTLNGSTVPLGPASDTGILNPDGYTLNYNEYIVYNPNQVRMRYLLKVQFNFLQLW
Recorded endpoint: Kd

Take a look at these entries with their results.
• CCc1ccc(C2CCN(C3CCN(c4ccc(C(=O)NCC(F)(F)F)nc4)CC3)C2)[nH]c1=O (racemic) [Compound 153rac] = 100 to 1000 nM
• CCc1ccc(C2CCN(C3CCN(c4ccc(C(=O)NC)nc4C(F)F)CC3)C2)[nH]c1=O (single isomer, unassigned) [Compound 164a] = 1000 to 10000 nM

Hey, can you go through the list below and give me Kd for every item?
1. CNC(=O)c1ccc(N2CCC(N3CCC(c4ccc(CC5CC5)c(=O)[nH]4)C3)CC2)cn1 (single isomer, unassigned) [Compound 213b]
2. CNC(=O)c1ccc(N2CCC(N3CCCC(c4nc5ncccc5c(=O)[nH]4)C3)CC2)cn1 (single isomer, unassigned) [Compound 98a]
3. CNC(=O)c1ccc(N2CCC(N3CCC(c4ccc(CC(F)(F)F)c(=O)[nH]4)C3)CC2)cn1 (single isomer, unassigned) [Compound 188a]
4. COCCNC(=O)c1ccc(N2CCC(N3CCCC(c4nc5ccccc5c(=O)[nH]4)C3)CC2)cn1 (single isomer, unassigned) [Compound 116b]
5. CNC(=O)c1ccc(OCCCN2CCCC(c3nc4ccccc4c(=O)[nH]3)C2)cn1 (single isomer, unassigned) [Compound 7a]
6. CNC(=O)c1ccc(N2CCC(N3CCCC(c4nc5cccnc5c(=O)[nH]4)C3)CC2)cn1 (single isomer, unassigned) [Compound 89b]

Return:
1: 100 to 1000 nM; 2: > 10000 nM; 3: > 10000 nM; 4: 1000 to 10000 nM; 5: 100 to 1000 nM; 6: > 10000 nM

Hey, can you go through the list below and give me Kd for every item?
1. CNC(=O)c1ccc(N2CCC(N3CCC(c4cc5cccc(F)c5c(=O)[nH]4)C3)CC2)c(F)n1 (single isomer, unassigned) [Compound 184a]
2. CNC(=O)c1ccc(N2CCC(N3CCCC(c4ncc(C(F)(F)F)c(=O)[nH]4)C3)CC2)cn1 (single isomer, unassigned) [Compound 73a]
3. CNC(=O)c1ccc(N2CCC(N3CCCC(c4nc5c(c(C(F)(F)F)nn5C)c(=O)[nH]4)C3)CC2)cn1 (single isomer, unassigned) [Compound 190a]
4. CNC(=O)c1ccc(N2CCC(N3CCC(c4cc5ccc(Cl)cc5c(=O)[nH]4)C3)CC2)cn1 (single isomer, unassigned) [Compound 129a]
5. CNC(=O)c1ccc(N2CCC(N3CCC(c4nc5c(C)nn(C)c5c(=O)[nH]4)C3)CC2)cn1 (racemic) [Compound 143rac]

Return:
1. 1000 to 10000 nM
2. > 10000 nM
3. 1000 to 10000 nM
4. 1000 to 10000 nM
5. 1000 to 10000 nM

###

biological target: full length N-terminally FLAG-tagged PARP1 (Homo sapiens, UniProt P09874); experiment: PARP1 probe displacement HTRF assay; conditions: read-out: PARP1 HTRF; binned Kd, probe displacement HTRF
Sequence (P09874 whole entry): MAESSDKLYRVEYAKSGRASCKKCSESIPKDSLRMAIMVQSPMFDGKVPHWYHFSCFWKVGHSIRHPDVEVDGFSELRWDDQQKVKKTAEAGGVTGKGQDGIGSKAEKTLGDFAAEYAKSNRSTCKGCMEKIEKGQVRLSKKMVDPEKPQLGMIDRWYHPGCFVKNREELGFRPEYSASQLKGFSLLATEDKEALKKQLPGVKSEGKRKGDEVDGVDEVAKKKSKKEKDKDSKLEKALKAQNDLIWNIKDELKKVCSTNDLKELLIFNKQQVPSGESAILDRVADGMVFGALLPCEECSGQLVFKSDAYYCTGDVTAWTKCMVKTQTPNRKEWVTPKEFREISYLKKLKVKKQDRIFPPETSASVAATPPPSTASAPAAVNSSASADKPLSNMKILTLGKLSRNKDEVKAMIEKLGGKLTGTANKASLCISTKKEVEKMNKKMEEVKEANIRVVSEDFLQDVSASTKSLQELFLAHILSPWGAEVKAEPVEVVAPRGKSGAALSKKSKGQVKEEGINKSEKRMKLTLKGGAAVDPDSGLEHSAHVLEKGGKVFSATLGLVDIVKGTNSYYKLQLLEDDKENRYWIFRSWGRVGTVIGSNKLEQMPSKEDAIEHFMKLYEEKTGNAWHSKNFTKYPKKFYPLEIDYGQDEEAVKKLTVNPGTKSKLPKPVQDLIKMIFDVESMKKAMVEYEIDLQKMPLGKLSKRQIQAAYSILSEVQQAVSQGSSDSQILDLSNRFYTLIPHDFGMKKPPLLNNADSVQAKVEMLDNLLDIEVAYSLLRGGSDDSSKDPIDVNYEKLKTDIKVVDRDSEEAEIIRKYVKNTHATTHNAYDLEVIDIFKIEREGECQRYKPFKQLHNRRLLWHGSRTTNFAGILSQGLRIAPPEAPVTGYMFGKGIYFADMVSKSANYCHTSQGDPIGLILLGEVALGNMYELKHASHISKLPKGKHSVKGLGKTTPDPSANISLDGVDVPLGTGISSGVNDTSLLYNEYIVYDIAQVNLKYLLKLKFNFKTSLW
pKd: −log10 of the molar value.
What pKd was measured for each of the following?

Hey, can you go through the list below and give me pKd for every item?
1. CNC(=O)c1ccc(N2CCC(N3CCC(c4cc5cccc(F)c5c(=O)[nH]4)C3)CC2)cc1F (single isomer, unassigned) [Compound 281a]
2. CNC(=O)c1ccc(N2CCC(N3CCC(c4cc5ccc(F)cc5c(=O)[nH]4)C3)CC2)cc1F (single isomer, unassigned) [Compound 270a]
3. CNC(=O)c1ccc(N2CCC(N3CCC(c4cc5cccc(OC)c5c(=O)[nH]4)C3)CC2)cn1 (single isomer, unassigned) [Compound 249b]
4. N#Cc1nc(C(=O)NC2CC2)ccc1N1CCC(N2CCC(c3cc4ccc(F)cc4c(=O)[nH]3)C2)CC1 (single isomer, unassigned) [Compound 397b]

Return:
1: > 8.00; 2: 7.00 to 8.00; 3: 6.00 to 7.00; 4: > 8.00

###

target: full length N-terminally FLAG-tagged PARP1 (Homo sapiens, UniProt P09874); experiment: PARP1 probe displacement HTRF assay; conditions: read-out: PARP1 HTRF; binned Kd, PARP1 probe displacement HTRF
What Kd was measured for each of the following?

Take a look at these entries with their results.
* CNC(=O)c1ccc(N2CCC(N3CCCC(c4nc5c(F)cccc5c(=O)[nH]4)C3)CC2)cn1 (single isomer, unassigned) [Compound 114b] | 100 to 1000 nM
* O=C(NCCF)c1ccc(N2CCC(N3CCCC(c4nc5ccccc5c(=O)[nH]4)C3)CC2)cn1 (single isomer, unassigned) [Compound 110b] | 10 to 100 nM
* NC(=O)c1ccc(N2CCC(N3CCCC(c4nc5ccccc5c(=O)[nH]4)C3)CC2)cn1 (single isomer, unassigned) [Compound 109a] | < 10 nM

Hey, can you go through the list below and give me Kd for every item?
1. CNC(=O)c1ccc(N2CCC(N3CCC(c4cc5c(F)cccc5c(=O)[nH]4)C3)CC2)cn1 (single isomer, unassigned) [Compound 172b]
2. O=c1[nH]c(C2CCN(C3CCN(c4ccc(-c5ncc[nH]5)cc4)CC3)C2)nc2ccccc12 (single isomer, unassigned) [Compound 76a]
3. CCc1cnc(C2CCN(C3CCC(F)(F)CC3)C2)[nH]c1=O (single isomer, unassigned) [Compound 38a]
4. CCc1ccc(C2CCN(C3CCN(c4ccc(C(=O)NC)nc4C(F)F)CC3)C2)[nH]c1=O (single isomer, unassigned) [Compound 164b]
5. CNC(=O)c1ccc(N2CCC(N3CCCC(c4ccc(C5CC5)c(=O)[nH]4)C3)CC2)cn1 (single isomer, unassigned) [Compound 126a]
6. O=c1[nH]c(C2CCCN(C3CCN(c4ccc(F)cc4F)CC3)C2)nc2ccccc12 (single isomer, unassigned) [Compound 113a]
7. CNC(=O)c1ccc(N2CCC(N3CCC(c4nc5ccc(Cl)cc5c(=O)[nH]4)C3)CC2)cn1 (single isomer, unassigned) [Compound 68b]

Return:
< 10 nM
10 to 100 nM
1000 to 10000 nM
10 to 100 nM
< 10 nM
100 to 1000 nM
< 10 nM
